The measurements presented in this section are drawn from paper PMC5715112.

B1: VH59 fused to the VP16 activation domain (pEF-VP16, CHO cells) / GAL4 DNA binding domain (DBD)-LEDGF IBD fusion (pM1, CHO cells) [not stated] (parent complex)
chain 1: EVQLLESGGGLVQPGGSLRLSCAASGFTFSTFSMNWVRQAPGKGLEWVSYISRTSKTIYYADSVKGRFTISRDNSKNTLYLQMNSLRAEDTAVYYCARGGWALGDEIPSSFLEFDYWGQGTLVTVS
chain 2: ETSMDSRLQRIHAEIKNSLKIDNLDVNRCIEALDELASLQVTMQQAQKHTEMITTLKKIRRFKVSQVIMEKSTMLYNKFKNMFLVGE

# Variants of: B1
# measurement.description: mammalian two-hybrid luciferase reporter assay in CHO cells; 48 h after transfection; Firefly/Renilla luciferase; n = 3; read off a plot
Listed below: response values for each entry.

// below: answered variants
{"item.sequence": "chain 1 EVQLLESGGGLVQPGGSLRLSCAASGFTFSTFSMNWVRQAPGKGLEWVSYISRTSKTIYYADSVKGRFTISRDNSKNTLYLQMNSLRAEDTAVYACARGGWALGDEIPSSFLEFDYWGQGTLVTVS [chain 1 Y95A]", "response": "~0.04"}
{"item.sequence": "chain 1 EVQLLESGGGLVQPGGSLRLSCAASGFTFSTFSMNWVRQAPGKGLEWVSYISRTSKTIYYADSVKGRFTISRDNSKNTLYLQMNSLRAEDTAVYYCARGGWALGDEIPSSFLEFDAWGQGTLVTVS [chain 1 Y116A]", "response": "~0.92"}
{"item.sequence": "chain 1 EVQLLESGGGLVQPGGSLRLSCAASGFTFSTFSMNWVRQAPGKGAEWVSYISRTSKTIYYADSVKGRFTISRDNSKNTLYLQMNSLRAEDTAVYYCARGGWALGDEIPSSFLEFDYWGQGTLVTVS [chain 1 L45A]", "response": "~1.2"}
{"item.sequence": "chain 1 EVQLLESGGGLVQPGGSLRLSCAASGFTFSTFSMNWVRQAPGKGLEWVSYISRTSKTIYYADSVKGRFTISRDNSKNTLYLQMNSLRAEDTAVYYCARGGWALGDEIPSSFLEFAYWGQGTLVTVS [chain 1 D115A]", "response": "~0.04"}

Note: attention shifts to another entry.
Enquiry: Which response value belongs to chain 1 EVQLLESGGGLVQPGGSLRLSCAASGFTFSTFSMNWVRQAPGKGLEWVSYISRTSKTIYYADSVKGRFTISRDNSKNTLYLQMNSLRAEDTAVYYCARGGWALGDEIPSSFLEFDYAGQGTLVTVS [chain 1 W117A] ?
Return: ~0.04
